# measurementProtocol: Spectroscopic measurements (absorption, emission, quantum yield, extinction coefficient)
# Assay type: physicochemical
# measurementParameters: BDNCA library, difference emission minus absorption
Below: a set of entries, each annotated with reported Flu-Abs.
Number only, no unit.

>>> endpointresult("CC1=CC(/C=C/c2ccc(C)c(F)c2)=[N+]2C1=C(c1ccc(NC(=O)CCl)cc1)c1cccn1[B-]2(F)F")
21

Q: Suppose we examine the molecule CC1=CC(/C=C/C=C(c2ccccc2)c2ccccc2)=[N+]2C1=C(c1ccc(NC(=O)CCl)cc1)c1cccn1[B-]2(F)F ; what Flu-Abs value has been reported?
Ans: 31

Q: Same read-out for CCc1ccc(/C=C/C2=[N+]3C(=C(c4ccc(NC(=O)CCl)cc4)c4cccn4[B-]3(F)F)C(C)=C2)cc1[N+](=O)[O-] ?
Ans: 20

Q: Same read-out for COc1cc(/C=C/C2=[N+]3C(=C(c4ccc(NC(=O)CCl)cc4)c4cccn4[B-]3(F)F)C(C)=C2)ccc1OCCBr ?
Ans: 40

Q: Same read-out for CC1=CC(/C=C/c2cc(Cl)cc(Cl)c2O)=[N+]2C1=C(c1ccc(NC(=O)CCl)cc1)c1cccn1[B-]2(F)F ?
Ans: 16

Q: Same read-out for CC1=CC(/C=C/c2cc(C)c(OCc3ccccc3)c(C)c2)=[N+]2C1=C(c1ccc(NC(=O)CCl)cc1)c1cccn1[B-]2(F)F ?
Ans: 23

Q: Same read-out for CC1=CC(/C=C/c2cccc3c2OCO3)=[N+]2C1=C(c1ccc(NC(=O)CCl)cc1)c1cccn1[B-]2(F)F ?
Ans: 19

Q: Same read-out for COc1cccc(/C=C/C2=[N+]3C(=C(c4ccc(NC(=O)CCl)cc4)c4cccn4[B-]3(F)F)C(C)=C2)c1OC ?
Ans: 20

Q: Same read-out for CCCOc1ccc(/C=C/c2cc(C)c3n2[B-](F)(F)[N+]2=CC=CC2=C3c2ccc(NC(=O)CCl)cc2)cc1 ?
Ans: 32

Q: Same read-out for COc1ccc(/C=C/c2cc(C)c3n2[B-](F)(F)[N+]2=CC=CC2=C3c2ccc(NC(=O)CCl)cc2)c2ccccc12 ?
Ans: 66

Q: Same read-out for CC1=CC(/C=C/c2ccc(Oc3ccc(C)cc3)cc2)=[N+]2C1=C(c1ccc(NC(=O)CCl)cc1)c1cccn1[B-]2(F)F ?
Ans: 27

Q: Same read-out for Cc1cc(/C=C/c2ccc(OCc3ccc(Br)cc3)cc2)n2c1C(c1ccc(NC(=O)CCl)cc1)=C1C=CC=[N+]1[B-]2(F)F ?
Ans: 24

Q: Same read-out for CC1=CC(/C=C/c2ccc(C(C)(C)C)cc2)=[N+]2C1=C(c1ccc(NC(=O)CCl)cc1)c1cccn1[B-]2(F)F ?
Ans: 23

Q: Same read-out for CC1=CC(/C=C/c2ccc(Cl)cc2)=[N+]2C1=C(c1ccc(NC(=O)CCl)cc1)c1cccn1[B-]2(F)F ?
Ans: 19

Q: Same read-out for COC(=O)c1ccc(/C=C/C2=[N+]3C(=C(c4ccc(NC(=O)CCl)cc4)c4cccn4[B-]3(F)F)C(C)=C2)cc1 ?
Ans: 21

Q: Same read-out for CC1=CC(/C=C/c2ccc(C)c(Cl)c2)=[N+]2C1=C(c1ccc(NC(=O)CCl)cc1)c1cccn1[B-]2(F)F ?
Ans: 26

Q: Same read-out for COc1ccccc1/C=C/c1cc(C)c2n1[B-](F)(F)[N+]1=CC=CC1=C2c1ccc(NC(=O)CCl)cc1 ?
Ans: 26

###

Below: a set of entries, each annotated with reported Abs.
# measurementProtocol: Spectroscopic measurements (absorption, emission, quantum yield, extinction coefficient)
# Format: physicochemical
# measurementParameters: BDNCA library, absorption
Please respond with the number in nm and leave the unit unwritten.

Q: Suppose we examine the compound CC1=CC(/C=C/c2ccc(C#N)cc2)=[N+]2C1=C(c1ccc(NC(=O)CCl)cc1)c1cccn1[B-]2(F)F ; what Abs value has been reported?
Ans: 560

Q: Same read-out for CCCOc1ccc(/C=C/c2cc(C)c3n2[B-](F)(F)[N+]2=CC=CC2=C3c2ccc(NC(=O)CCl)cc2)cc1 ?
Ans: 566

Q: Same read-out for CC1=CC(/C=C/c2ccc(C)c3ccccc23)=[N+]2C1=C(c1ccc(NC(=O)CCl)cc1)c1cccn1[B-]2(F)F ?
Ans: 572

Q: Same read-out for CC1=CC(/C=C/c2ccc(C)o2)=[N+]2C1=C(c1ccc(NC(=O)CCl)cc1)c1cccn1[B-]2(F)F ?
Ans: 577

Q: Same read-out for Cc1cc(/C=C/c2ccc(OCc3ccc(Br)cc3)cc2)n2c1C(c1ccc(NC(=O)CCl)cc1)=C1C=CC=[N+]1[B-]2(F)F ?
Ans: 556

Q: Same read-out for COc1cccc(/C=C/C2=[N+]3C(=C(c4ccc(NC(=O)CCl)cc4)c4cccn4[B-]3(F)F)C(C)=C2)c1Cl ?
Ans: 556

Q: Same read-out for COc1ccc([N+](=O)[O-])cc1/C=C/C1=[N+]2C(=C(c3ccc(NC(=O)CCl)cc3)c3cccn3[B-]2(F)F)C(C)=C1 ?
Ans: 559

Q: Same read-out for CC1=CC(/C=C/c2ccc(O)cc2)=[N+]2C1=C(c1ccc(NC(=O)CCl)cc1)c1cccn1[B-]2(F)F ?
Ans: 569

Q: Same read-out for COc1cc(Cl)cc(/C=C/C2=[N+]3C(=C(c4ccc(NC(=O)CCl)cc4)c4cccn4[B-]3(F)F)C(C)=C2)c1OC ?
Ans: 557

Q: Same read-out for CC1=CC(/C=C/c2[nH]cnc2C)=[N+]2C1=C(c1ccc(NC(=O)CCl)cc1)c1cccn1[B-]2(F)F ?
Ans: 566

Q: Same read-out for COc1ccc(/C=C/C2=[N+]3C(=C(c4ccc(NC(=O)CCl)cc4)c4cccn4[B-]3(F)F)C(C)=C2)cc1Br ?
Ans: 564

Q: Same read-out for CC1=CC(/C=C/c2ccc(-c3cccc(Cl)c3)o2)=[N+]2C1=C(c1ccc(NC(=O)CCl)cc1)c1cccn1[B-]2(F)F ?
Ans: 595

Q: Same read-out for COc1ccc(/C=C/C2=[N+]3C(=C(c4ccc(NC(=O)CCl)cc4)c4cccn4[B-]3(F)F)C(C)=C2)cc1O ?
Ans: 569

Q: Same read-out for CC1=CC(/C=C/c2ccc3ccccc3c2)=[N+]2C1=C(c1ccc(NC(=O)CCl)cc1)c1cccn1[B-]2(F)F ?
Ans: 564

###

# measurementProtocol: Spectroscopic measurements (absorption, emission, quantum yield, extinction coefficient)
# Type: physicochemical
# measurementParameters: absorption maximum, BDNCA library
Below: a set of entries, each annotated with reported Abs.
Please respond with the number in nm and leave the unit unwritten.

Example entries and their recorded answers appear below.
>>> endpointresult("COc1ccc(/C=C/C2=[N+]3C(=C(c4ccc(NC(=O)CCl)cc4)c4cccn4[B-]3(F)F)C(C)=C2)cc1C")
569
>>> endpointresult("COc1cc(/C=C/c2cc(C)c3n2[B-](F)(F)[N+]2=CC=CC2=C3c2ccc(NC(=O)CCl)cc2)ccc1OCCN1CCCC1")
569
>>> endpointresult("Cc1cc(/C=C/c2cc(Cl)ccc2Cl)n2c1C(c1ccc(NC(=O)CCl)cc1)=C1C=CC=[N+]1[B-]2(F)F")
555
>>> endpointresult("COc1ccc(/C=C/C2=[N+]3C(=C(c4ccc(NC(=O)CCl)cc4)c4cccn4[B-]3(F)F)C(C)=C2)c(OC)c1C")
569
>>> endpointresult("Cc1cc(/C=C/c2ccc(-c3ccccc3)o2)n2c1C(c1ccc(NC(=O)CCl)cc1)=C1C=CC=[N+]1[B-]2(F)F")
598

Q: Suppose we examine the compound Cc1cc(/C=C/c2ccc(Br)cc2)n2c1C(c1ccc(NC(=O)CCl)cc1)=C1C=CC=[N+]1[B-]2(F)F ; what Abs value has been reported?
Ans: 557

Q: Same read-out for CC1=CC(/C=C/c2ccc(Oc3ccc(F)cc3)cc2)=[N+]2C1=C(c1ccc(NC(=O)CCl)cc1)c1cccn1[B-]2(F)F ?
Ans: 561

Q: Same read-out for CCOc1cc(/C=C/C2=[N+]3C(=C(c4ccc(NC(=O)CCl)cc4)c4cccn4[B-]3(F)F)C(C)=C2)ccc1O ?
Ans: 573

Q: Same read-out for Cc1cc(/C=C/c2cc(F)ccc2O)n2c1C(c1ccc(NC(=O)CCl)cc1)=C1C=CC=[N+]1[B-]2(F)F ?
Ans: 564

Q: Same read-out for Cc1cc(/C=C/c2cc(OC(F)(F)F)ccc2O)n2c1C(c1ccc(NC(=O)CCl)cc1)=C1C=CC=[N+]1[B-]2(F)F ?
Ans: 561

###

# measurementProtocol: Spectroscopic measurements (absorption, emission, quantum yield, extinction coefficient)
# Assay type: physicochemical
# measurementParameters: difference of emission and absorption maxima
Field 'label' (enum: criterion met / criterion not met). Set to criterion met when Flu-Abs is strictly under 30; else criterion not met.

Known results for compounds:
>>> assignedcategory("CC1=CC(/C=C/c2cc3ccccc3o2)=[N+]2C1=C(c1ccc(NC(=O)CCl)cc1)c1cccn1[B-]2(F)F [BDNCA-368]")
"criterion met"
>>> assignedcategory("COc1ccc(/C=C/C2=[N+]3C(=C(c4ccc(NC(=O)CCl)cc4)c4cccn4[B-]3(F)F)C(C)=C2)c(OC)c1C [BDNCA-347]")
"criterion not met"
>>> assignedcategory("COc1ccc(/C=C/C2=[N+]3C(=C(c4ccc(NC(=O)CCl)cc4)c4cccn4[B-]3(F)F)C(C)=C2)cc1C [BDNCA-335]")
"criterion not met"
>>> assignedcategory("CC1=CC(/C=C/c2cccc(C)c2C)=[N+]2C1=C(c1ccc(NC(=O)CCl)cc1)c1cccn1[B-]2(F)F [BDNCA-349]")
"criterion met"
>>> assignedcategory("CC1=CC(/C=C/c2ccc(Oc3ccc(F)cc3)cc2)=[N+]2C1=C(c1ccc(NC(=O)CCl)cc1)c1cccn1[B-]2(F)F [BDNCA-322]")
"criterion met"

Q: Quick check: does Cc1cc(/C=C/c2ccc3c(c2)OC(F)(F)O3)n2c1C(c1ccc(NC(=O)CCl)cc1)=C1C=CC=[N+]1[B-]2(F)F [BDNCA-332] have Flu-Abs under 30?
Ans: criterion met

Q: Same read-out for CC1=CC(/C=C/c2cccc(Oc3ccc(C(C)(C)C)cc3)c2)=[N+]2C1=C(c1ccc(NC(=O)CCl)cc1)c1cccn1[B-]2(F)F [BDNCA-435] ?
Ans: criterion met
